Catalogue of compounds with associated TGI
- Test system: SN12C renal
- procedure_details: NCI tumour cell line growth inhibition, 48 h

{"compound": "CCOC(=O)/C(C#N)=C1\\N[C@H](C(=O)OCC)CO1", "TGI": "> 100 µM"}
{"compound": "CC(CCc1ccc2c(c1)c(=N)c1ccc(N)cc1n2O)CC(C)(C)C (stereo unspecified)", "TGI": "3.22 µM"}
{"compound": "c1ccc2c(c1)CCN2CCc1c[nH]c2ccccc12", "TGI": "> 10 µM"}
{"compound": "Cc1cccc(Nc2cn(CCOc3ccccc3)c(=O)n(CCOc3ccccc3)c2=O)c1", "TGI": "> 100 µM"}
{"compound": "CN=C(N)N/N=C(\\C)c1ccc2oc3ccc(/C(C)=N/NC(N)=NC)cc3c2c1", "TGI": "> 24.5 µM"}
{"compound": "O=C(NCCNCCO)N/N=C/c1ccc([N+](=O)[O-])cc1", "TGI": "> 100 µM"}

###

- Test system: CCRF-CEM leukemia
- procedure_details: NCI tumour cell line growth inhibition, 48 h
Each record here notes measured TGI.

{"compound": "CN(C)C(=O)C1CCC(=C2C(=O)OC(C)(C)OC2=O)N1C (stereo not given)", "TGI": "> 100 µM"}
{"compound": "C=C[C@]1(C)C=C2C(=O)[C@@]3(O)OC[C@@]4(CCCC(C)(C)C43O)C2(O)C(O)C1 (stereo not given in full)", "TGI": "16.5 µM"}
{"compound": "Cc1cccc(Nc2cn(CCOc3ccccc3)c(=O)n(CCOc3ccccc3)c2=O)c1", "TGI": "> 100 µM"}
{"compound": "COc1cc2c(c(OC)c1OC)C(=O)[C@H]1OC(=O)N[C@@H]21", "TGI": "> 100 µM"}
{"compound": "O=C(CC(C(=O)c1ccsc1)c1ccccc1)c1cccs1 (stereo not given)", "TGI": "> 100 µM"}
{"compound": "O=C1CCC[C@H]2O[C@@H](COCc3ccccc3)C[C@@H]12", "TGI": "> 100 µM"}
{"compound": "COC(=O)c1cc(-c2c[nH]cc2C(=O)OCc2ccccc2)cn1S(=O)(=O)c1ccc(C)cc1", "TGI": "> 100 µM"}
{"compound": "CCC1=CC2CC(C(=O)OC)C1(N(C)C)C2=O (stereo not given)", "TGI": "> 100 µM"}
{"compound": "Cn1cc(-c2ccc3c(c2)CCN3C(=O)Cc2cccc(C(F)(F)F)c2)c2c(N)ncnc21", "TGI": "> 100 µM"}
{"compound": "Cc1c2cnccc2nc2[nH]c3ccncc3c12", "TGI": "32.6 µM"}
{"compound": "O=C1CCC2(c3ccccc3)Nc3cc(Cl)ccc3N12 (stereo not given)", "TGI": "75.2 µM"}
{"compound": "C=CC12CN(C)C3C4COC(CC41)C1(C(=O)Nc4ccccc41)C32 (stereo not given)", "TGI": "> 195 µM"}
{"compound": "CC1CC[C@@]2(OC1)OC1C[C@H]3[C@@H]4CC[C@H]5CC(OC6OC(CO)C(OC7OC(CO)C(O)C(O)C7O)C(O)C6O)CCC5(C)[C@H]4CCC3(C)C1[C@@H]2C (stereo not given in full)", "TGI": "21.7 µM"}
{"compound": "NCCCc1ccc2oc3ccccc3c2c1", "TGI": "32.6 µM"}
{"compound": "CC(C)(C)OC(=O)CN1CCNCCN(CC(=O)OC(C)(C)C)CC1", "TGI": "> 100 µM"}
{"compound": "O=c1[nH]cc(OCC(F)(F)F)c(=O)[nH]1", "TGI": "> 100 µM"}
{"compound": "CSc1nc(-c2ccccc2)c2c(n1)-c1ccccc1CC2", "TGI": "> 100 µM"}
{"compound": "COC1OC(COC(=O)NCCCCC(=O)C(F)(F)F)C(O)C(O)C1O (stereo not given)", "TGI": "> 100 µM"}
{"compound": "O=C(CC(C(=O)c1cccs1)c1ccsc1)c1ccsc1 (stereo not given)", "TGI": "> 100 µM"}
{"compound": "CCSc1nc(COC(=O)NC)c(COC(=O)NC)n1C", "TGI": "> 100 µM"}

###

- Test system: SNB-19 CNS
- procedure_details: NCI tumour cell line growth inhibition, 48 h; in the data active = GI50 below about 0.43 µM; inactive = the rest
Possible outcomes: yes (1) = active, no (0) = inactive

{"molecule": "CC[CH2][Pb]([CH2]CC)([CH2]CC)[NH]S(=O)(=O)c1ccc(C)cc1", "test_target": "SNB-19 CNS", "class_label": "yes (1)"}
{"molecule": "NCc1ccc(-n2c(-c3nonc3N)nc3cnccc32)cc1", "test_target": "SNB-19 CNS", "class_label": "no (0)"}
{"molecule": "C[C@H](CS(C)(=O)=O)Nc1ncc2cc(Oc3ccc(F)cc3F)c(=O)n(C)c2n1", "test_target": "SNB-19 CNS", "class_label": "no (0)"}
{"molecule": "Cn1cc(-c2ccc(CNc3cc(-c4cnc5cc(OCCCN6CCCC6)ccn45)ncn3)cc2)cn1", "test_target": "SNB-19 CNS", "class_label": "no (0)"}
{"molecule": "CCOC(=O)N1CCN(S(=O)(=O)c2oc(-c3ccc(Cl)cc3)nc2C#N)CC1", "test_target": "SNB-19 CNS", "class_label": "no (0)"}
{"molecule": "CS(=O)(=O)Nc1cc(-c2ccc3ncnc(Nc4ccc5c(cnn5Cc5ccc(F)cc5)c4)c3c2)cnc1Cl", "test_target": "SNB-19 CNS", "class_label": "no (0)"}
{"molecule": "COc1ccccc1-c1c(C)nn2c(NCc3ccccn3)cc(C)nc12", "test_target": "SNB-19 CNS", "class_label": "no (0)"}
{"molecule": "CCN1C(=O)N(CC)C2C1NN=c1s/c(=C3\\C(=O)N(C)c4ccccc43)c(=O)n12 (stereo unspecified)", "test_target": "SNB-19 CNS", "class_label": "no (0)"}
{"molecule": "Fc1ccc(Nc2nc(NCCNc3ccnc4cc(Cl)ccc34)nc(N3CCOCC3)n2)cc1", "test_target": "SNB-19 CNS", "class_label": "no (0)"}
{"molecule": "COc1ccc2c(c1)C(=O)c1c-2n(CCCN2CCOCC2)c(=O)c2ccccc12", "test_target": "SNB-19 CNS", "class_label": "no (0)"}
{"molecule": "C=C(C)CCC(C)N1CCC(N2CCC(C(=O)NCCc3ccccc3)CC2)CC1 (stereo unspecified)", "test_target": "SNB-19 CNS", "class_label": "no (0)"}
{"molecule": "Cc1c(C)c2ccc(OC/C=C3\\CCC(=O)O3)cc2oc1=O", "test_target": "SNB-19 CNS", "class_label": "no (0)"}
{"molecule": "O=C(NN1C(=O)CSC1c1ccc(Cl)cc1)c1[nH]c2ccc(F)cc2c1-c1ccccc1 (stereo unspecified)", "test_target": "SNB-19 CNS", "class_label": "no (0)"}
{"molecule": "O=c1[nH]cnc2c(C3OC(CO)C(O)C3O)scc12 (stereo unspecified)", "test_target": "SNB-19 CNS", "class_label": "no (0)"}
{"molecule": "COc1cc2cc(Oc3ccc(NC(=O)c4ccc(Cl)c(C(F)(F)F)c4)cc3)c(C)nc2cc1OC", "test_target": "SNB-19 CNS", "class_label": "no (0)"}
{"molecule": "CCCCC[C@H]1C/C=C2/C(=O)C(Cl)=C[C@@H]2C/C=C\\CCCC(=O)O[C@@H](CCCCC)C/C=C2/C(=O)C(Cl)=C[C@@H]2C/C=C\\CCCC(=O)O1", "test_target": "SNB-19 CNS", "class_label": "no (0)"}
{"molecule": "COc1ccc(-c2ccc(/C=N/n3c(COc4ccc(Cl)cc4)n[nH]c3=S)o2)c([N+](=O)[O-])c1", "test_target": "SNB-19 CNS", "class_label": "no (0)"}
{"molecule": "COc1cnc2c(c1)C(=O)c1c-2n(CCCN2CCCC2)c(=O)c2cc(Cl)ccc12", "test_target": "SNB-19 CNS", "class_label": "no (0)"}
{"molecule": "Clc1ccc2nc(Oc3ccccc3)cnc2c1", "test_target": "SNB-19 CNS", "class_label": "no (0)"}
{"molecule": "Cn1cc(-c2ccc3c(c2)CCN3C(=O)Cc2cccc(C(F)(F)F)c2)c2c(N)ncnc21", "test_target": "SNB-19 CNS", "class_label": "no (0)"}
{"molecule": "CCc1c[nH]c2ncnc(N3CC[C@@](N)(CNC(=O)c4ccc(F)cc4F)C3)c12", "test_target": "SNB-19 CNS", "class_label": "no (0)"}

###

// reported TGI for each item listed
- System: NCI-H522 lung
- procedure_details: NCI tumour cell line growth inhibition, 48 h
measured_endpoint: TGI

{"molecule": "COc1ccc(-c2ccc(/C=N/n3c(COc4ccc(Cl)cc4)n[nH]c3=S)o2)c([N+](=O)[O-])c1", "test_target": "NCI-H522 lung", "measured_endpoint": "TGI", "result": "> 100 µM"}
{"molecule": "O=c1[nH]cc(OCC(F)(F)F)c(=O)[nH]1", "test_target": "NCI-H522 lung", "measured_endpoint": "TGI", "result": "> 100 µM"}
{"molecule": "O=c1oc2ccc(Cl)cc2c(=O)n1-c1ccc(I)cc1F", "test_target": "NCI-H522 lung", "measured_endpoint": "TGI", "result": "1.83 µM"}
{"molecule": "O=c1cccccc1NCCCCCCCCCNc1cccccc1=O", "test_target": "NCI-H522 lung", "measured_endpoint": "TGI", "result": "52.9 µM"}
{"molecule": "C=C(C)[C@@H]1CC[C@@]2(C)[C@H]1[C@H]1CCC3[C@@]4(C)CC[C@H](O)C(C)(C)[C@@H]4CC[C@@]3(C)[C@]1(C)C[C@@H]2O (stereo partly specified)", "test_target": "NCI-H522 lung", "measured_endpoint": "TGI", "result": "> 100 µM"}
{"molecule": "Cc1ncc([N+](=O)[O-])n1CCNC(=O)CCCn1cnc([N+](=O)[O-])n1", "test_target": "NCI-H522 lung", "measured_endpoint": "TGI", "result": "> 100 µM"}
{"molecule": "O=C(O)C/C(=C\\c1ccccc1)C(=O)O", "test_target": "NCI-H522 lung", "measured_endpoint": "TGI", "result": "> 100 µM"}
{"molecule": "Cc1cccc(C)c1NC(=O)CCCC(=O)C1CC(=O)CCC1=O (stereo unspecified)", "test_target": "NCI-H522 lung", "measured_endpoint": "TGI", "result": "> 100 µM"}
{"molecule": "CO[C@@H](c1ccccc1)[C@H](O)[C@](O)(c1ccccc1)P(=O)(OC)OC", "test_target": "NCI-H522 lung", "measured_endpoint": "TGI", "result": "> 100 µM"}
{"molecule": "Cc1cc(N2CCCC2)nc(N(CCCNc2ccnc3cc(Cl)ccc23)Cc2ccc3c(c2)OCO3)n1", "test_target": "NCI-H522 lung", "measured_endpoint": "TGI", "result": "3.95 µM"}
{"molecule": "COc1cnc2c(c1)C(=O)c1c-2n(CCCN2CCCC2)c(=O)c2cc(Cl)ccc12", "test_target": "NCI-H522 lung", "measured_endpoint": "TGI", "result": "13.8 µM"}
{"molecule": "CCc1c[nH]c2ncnc(N3CC[C@@](N)(CNC(=O)c4ccc(F)cc4F)C3)c12", "test_target": "NCI-H522 lung", "measured_endpoint": "TGI", "result": "> 75.7 µM"}
{"molecule": "Nc1nc(Nc2cccc(F)c2)nc2ccccc12", "test_target": "NCI-H522 lung", "measured_endpoint": "TGI", "result": "54 µM"}
{"molecule": "COc1ccccc1-c1c(C)nn2c(NCc3ccccn3)cc(C)nc12", "test_target": "NCI-H522 lung", "measured_endpoint": "TGI", "result": "> 50 µM"}
{"molecule": "O=C1CC2C(=O)N(Cc3ccccc3)C1C(S(=O)(=O)c1ccccc1)C2S(=O)(=O)c1ccccc1 (stereo unspecified)", "test_target": "NCI-H522 lung", "measured_endpoint": "TGI", "result": "1.38 µM"}
{"molecule": "NC1=Nc2ccccc2Sc2nnc(-c3ccc(Cl)cc3)n21", "test_target": "NCI-H522 lung", "measured_endpoint": "TGI", "result": "68.3 µM"}
{"molecule": "Clc1ccc2nc(Oc3ccccc3)cnc2c1", "test_target": "NCI-H522 lung", "measured_endpoint": "TGI", "result": "> 100 µM"}
{"molecule": "CC1=NN(C(=O)c2ccc(Cl)cc2)C(=O)/C1=C/c1cccc([N+](=O)[O-])c1", "test_target": "NCI-H522 lung", "measured_endpoint": "TGI", "result": "> 100 µM"}
{"molecule": "CC(C)=CCC/C(C)=C/Cc1c(O)ccc2c1[nH]c1cc(O)c(C)cc12", "test_target": "NCI-H522 lung", "measured_endpoint": "TGI", "result": "> 25 µM"}
{"molecule": "Oc1cc(Cl)ccc1Oc1ccc(Cl)cc1Cl", "test_target": "NCI-H522 lung", "measured_endpoint": "TGI", "result": "6.05 µM"}
{"molecule": "O=C1C(=O)N(C2CCCCC2)C(=S)N1C1CCCCC1", "test_target": "NCI-H522 lung", "measured_endpoint": "TGI", "result": "> 100 µM"}
